Target: HiBiT-BRM fusion protein in stable HeLa cell line (Homo sapiens, UniProt P51531)
Construct: expressed in transfected cells
Sequence (P51531 whole entry, the tested form may be a part): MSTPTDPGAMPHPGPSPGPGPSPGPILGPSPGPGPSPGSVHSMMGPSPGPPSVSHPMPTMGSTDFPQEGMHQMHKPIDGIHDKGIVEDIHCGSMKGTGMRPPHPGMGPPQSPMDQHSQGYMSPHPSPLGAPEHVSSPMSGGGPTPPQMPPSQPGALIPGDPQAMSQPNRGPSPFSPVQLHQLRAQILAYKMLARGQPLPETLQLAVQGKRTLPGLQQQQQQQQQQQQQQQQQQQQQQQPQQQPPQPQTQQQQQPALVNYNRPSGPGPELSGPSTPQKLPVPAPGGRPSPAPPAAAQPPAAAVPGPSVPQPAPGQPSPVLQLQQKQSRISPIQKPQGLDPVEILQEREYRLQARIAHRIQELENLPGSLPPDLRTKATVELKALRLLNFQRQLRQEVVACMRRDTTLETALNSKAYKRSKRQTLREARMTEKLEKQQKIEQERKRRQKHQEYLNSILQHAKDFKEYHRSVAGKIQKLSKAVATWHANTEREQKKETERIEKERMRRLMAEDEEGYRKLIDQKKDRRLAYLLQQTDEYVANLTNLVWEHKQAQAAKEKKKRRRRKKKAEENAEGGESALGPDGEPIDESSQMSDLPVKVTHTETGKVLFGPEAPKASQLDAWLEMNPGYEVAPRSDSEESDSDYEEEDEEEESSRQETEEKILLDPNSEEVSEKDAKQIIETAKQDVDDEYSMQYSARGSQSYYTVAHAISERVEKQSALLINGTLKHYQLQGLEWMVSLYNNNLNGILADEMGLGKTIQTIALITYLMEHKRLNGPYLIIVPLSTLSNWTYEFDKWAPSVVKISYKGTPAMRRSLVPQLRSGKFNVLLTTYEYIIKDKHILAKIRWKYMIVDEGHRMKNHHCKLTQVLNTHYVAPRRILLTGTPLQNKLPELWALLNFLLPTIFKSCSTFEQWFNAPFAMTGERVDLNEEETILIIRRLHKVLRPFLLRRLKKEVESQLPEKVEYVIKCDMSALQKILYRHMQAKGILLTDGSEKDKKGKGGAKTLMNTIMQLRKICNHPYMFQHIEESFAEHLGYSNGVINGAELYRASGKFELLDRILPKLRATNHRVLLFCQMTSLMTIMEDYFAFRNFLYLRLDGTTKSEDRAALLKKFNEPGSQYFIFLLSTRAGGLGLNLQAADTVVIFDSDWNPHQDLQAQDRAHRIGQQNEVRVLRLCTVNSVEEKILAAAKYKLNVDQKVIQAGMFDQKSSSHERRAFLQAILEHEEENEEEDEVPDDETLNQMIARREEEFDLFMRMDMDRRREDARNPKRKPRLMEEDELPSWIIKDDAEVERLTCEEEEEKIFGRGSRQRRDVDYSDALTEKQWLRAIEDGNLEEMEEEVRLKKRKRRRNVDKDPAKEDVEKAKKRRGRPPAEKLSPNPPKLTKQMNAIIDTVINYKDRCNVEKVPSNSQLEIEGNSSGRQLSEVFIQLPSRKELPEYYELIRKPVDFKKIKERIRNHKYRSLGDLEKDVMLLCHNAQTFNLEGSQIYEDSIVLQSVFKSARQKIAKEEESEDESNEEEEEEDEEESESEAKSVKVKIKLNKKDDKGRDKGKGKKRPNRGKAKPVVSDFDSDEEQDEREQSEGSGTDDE
Assay: HiBiT-BRM cell-based degradation assay (Nano-Glo HiBiT Lytic Detection, 24 h)
Parameters: scale not given here
Conditions: HeLa HiBiT-BRM cells, read-out: BRM HiBit Degradation IC50
Protocol: Procedure: A stable HeLa cell line expressing HiBiT-BRM was generated. On day 0, 5000 cells were seeded in 40 μL of media into each well of 384-well cell culture plates. […] The plates were shaken for 10 minutes at room temperature and the bioluminescence read using an EnVision plate reader (PerkinElmer). The degradation % was calculated using the following formula: % degradation=100%−100%×(Lumsample−LumLC)/(LumHC−LumLC). […]
DC50: recorded values

A selection of reference data follows.
compound	DC50
CC(C)[C@@H](C(=O)N1C[C@H](O)C[C@H]1C(=O)N[C@@H](C)c1ccccc1F)c1cc(N2CC3(CN(c4ccc5cc(-c6ccccc6O)nnc5c4)C3)C2)no1	< 10 nM
Cc1ncsc1-c1ccc([C@H](C)NC(=O)[C@@H]2C[C@@H](O)CN2C(=O)[C@@H](c2cc(N3CCOC4(CN(c5ccc6cc(-c7ccccc7O)nnc6c5)C4)C3)no2)C(C)C)cc1	< 10 nM

Q: Value lookup for DC50; key = `Cc1cc2cc(-c3ccccc3O)nnc2cc1N1CC2(CN(c3cc([C@H](C(=O)N4C[C@H](O)C[C@H]4C(=O)N[C@@H](C)c4ccc(-c5scnc5C)cc4)C(C)C)on3)C2)C1`
A: < 10 nM
